- assay.protocol: A CellTox Green Cytotoxicity Assay to monitor cytotoxicity in HepG2 cells - 32 hour (AID 1224883); note: nearly all actives have a fitted effect of over 50% in size; note: potency is the fitted concentration of half-maximal effect
- condition.set: CellTox Green fluorescence; series mostly up to 76.8 µM
- Text: National Center for Advancing Translational Sciences [NCATS] NIH Chemical Genomics Center [NCGC] U.S. Environmental Protection Agency [EPA] National Institutes of Environmental Health Sciences [NIEHS] National Toxicology Program [NTP] Cell-based models are critical for drug discovery. […] Viable cells produce no appreciable increases in fluorescence. Therefore, the fluorescence signal produced by the binding interaction with dead cell DNA is proportional to cytotoxicity. […]
Records with an inconclusive call do not appear. Calls of active or inactive are those of the source. Calls come from the whole dose curve; as a rule, active = well fitted activation curve with a large enough effect in the repeat runs; inconclusive = weak or mixed curves; inactive = flat fitted curve, though single readings scatter.
property.measured: Potency

These solved cases illustrate the format of a correct answer.
- compound: "Cc1c(N)cccc1C(F)(F)F"
  Potency: "inactive"
- compound: "Cc1c(F)c(N2CCNC(C)C2)cc2c1c(=O)c(C(=O)O)cn2C1CC1 (stereo unspecified)"
  Potency: "inactive"
- compound: "Cl[Si](Cl)(c1ccccc1)c1ccccc1"
  Potency: "inactive"
- compound: "CCC(=O)OC(=O)CC"
  Potency: "inactive"
- compound: "CCCCC(CC)COC(=O)CCCCC(=O)OCc1ccccc1 (stereo unspecified)"
  Potency: "inactive"
- compound: "CCCCC/C=C\\C/C=C\\CCCCCCCC(=O)O"
  Potency: "inactive"
- compound: "CCCCCCCCCCCCOCCOCCOCCOCCOCCOCCOCCOCCOCCO"
  Potency: "23.9 µM (active)"
- compound: "CNc1ccc([N+](=O)[O-])cc1"
  Potency: "inactive"

In: Which Potency value is on record for "CC1(C)CCC[C@]2(C)[C@H]3CC(=O)O[C@]3(C)CC[C@@H]12" ?
Out: inactive

* * *

- assay.protocol: qHTS assay for small molecule agonists of the p53 signaling pathway - cell viability (AID 651633); note: nearly all actives have a fitted effect of over 30% in size
- condition.set: p53RE-bla HCT-116 viability, ATP luminescence, 16 h; series mostly up to 83.3 µM
Results filed as inconclusive are left out. Activity calls are given as the source filed them. Calls come from the whole dose curve.
Give one outcome, nothing more. List: active, inactive

Sample answers from the record:
- molecule: "CCCCOC(=O)CC"
  label: "inactive"
- molecule: "CCCCNS(=O)(=O)c1ccc(C)cc1"
  label: "inactive"
- molecule: "O=C(O)c1ccc2cc(C(=O)O)ccc2c1"
  label: "inactive"
- molecule: "CC(CO)Oc1ccccc1 (stereo not drawn)"
  label: "inactive"
- molecule: "CCCCCCCCCCCCCC[N+](C)(C)C"
  label: "active"

In: Test call, this molecule: "COc1cc(/C=C/c2ccccc2)oc(=O)c1"
Out: inactive

In: Test call, this molecule: "Nc1nc(N)nc(-c2cc(Cl)ccc2Cl)n1"
Out: inactive

In: Test call, this molecule: "CC[C@H](C)COC(=O)/C=C/c1ccc(N=Cc2ccc(OC)cc2)cc1"
Out: inactive

* * *

- test.system: Cytochrome P450 2D6 (Homo sapiens) (UniProt P10635)
- Sequence (P10635 whole entry, looked up): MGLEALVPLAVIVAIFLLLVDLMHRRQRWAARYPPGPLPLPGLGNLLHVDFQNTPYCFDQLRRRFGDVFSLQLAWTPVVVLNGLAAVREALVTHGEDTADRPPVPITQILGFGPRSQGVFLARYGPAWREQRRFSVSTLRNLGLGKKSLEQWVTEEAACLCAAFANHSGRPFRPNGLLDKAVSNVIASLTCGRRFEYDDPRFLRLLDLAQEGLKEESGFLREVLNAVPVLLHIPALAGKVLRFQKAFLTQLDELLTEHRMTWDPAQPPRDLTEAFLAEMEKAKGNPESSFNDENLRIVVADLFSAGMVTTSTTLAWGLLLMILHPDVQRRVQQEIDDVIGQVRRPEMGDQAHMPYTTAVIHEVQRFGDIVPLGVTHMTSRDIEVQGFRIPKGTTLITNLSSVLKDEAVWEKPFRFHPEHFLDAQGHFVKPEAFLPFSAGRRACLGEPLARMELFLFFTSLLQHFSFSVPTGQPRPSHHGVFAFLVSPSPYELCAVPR
- assay.protocol: Cytochrome P450 Family 2 Subfamily D Member 6 (CYP2D6) small molecule antagonists: luciferase reporter qHTS assay (AID 1671196); note: nearly all actives have a fitted effect of over 50% in size; note: potency is the fitted concentration of half-maximal effect
- condition.set: P450-Glo CYP2D6 enzyme assay, luciferin luminescence, 1 h; series mostly up to 115 µM
Inconclusive results are not listed. Activity calls are given as the source filed them. Calls follow the shape of the dose curve; as a rule, active = well fitted inhibition curve with a large enough effect in the repeat runs; inconclusive = weak or mixed curves; inactive = no such curve, though single readings can be large or run the other way.
property.measured: Potency

These solved cases illustrate the format of a correct answer.
- compound: "CC(C)CCCCCOC(=O)CCS"
  test.system: "Cytochrome P450 2D6 (Homo sapiens) (UniProt P10635)"
  Potency: "inactive"
- compound: "COC1=C(OC)C(=O)C(CCCCCCCCCCO)=C(C)C1=O"
  test.system: "Cytochrome P450 2D6 (Homo sapiens) (UniProt P10635)"
  Potency: "34.7 µM (active)"
- compound: "Cc1c(C)c2c(c(C)c1O)CC[C@@](C)(CCC[C@H](C)CCC[C@H](C)CCCC(C)C)O2"
  test.system: "Cytochrome P450 2D6 (Homo sapiens) (UniProt P10635)"
  Potency: "inactive"
- compound: "O=C(O)c1cc(-c2ccc(F)cc2F)ccc1O"
  test.system: "Cytochrome P450 2D6 (Homo sapiens) (UniProt P10635)"
  Potency: "inactive"
- compound: "Cc1c2ccccc2c(C)c2c1ccc1ccccc12"
  test.system: "Cytochrome P450 2D6 (Homo sapiens) (UniProt P10635)"
  Potency: "inactive"
- compound: "CCCCCC(C)OC(=O)COc1ccc(Cl)c2cccnc12 (configuration not stated)"
  test.system: "Cytochrome P450 2D6 (Homo sapiens) (UniProt P10635)"
  Potency: "inactive"

In: Which Potency value is on record for "CC(C)(C)c1csc(-c2cc3cc(OCc4ccccc4CC(=O)O)ccc3o2)n1" ?
Out: inactive

In: Which Potency value is on record for CC(CCc1ccccc1)NCC(O)c1ccc(O)c(C(N)=O)c1 (configuration not stated) ?
Out: 0.564 µM (active)

In: Which Potency value is on record for "c1ccsc1" ?
Out: inactive

In: Which Potency value is on record for "C=C(C)C(=O)OCCCCCCCCCC" ?
Out: inactive

In: Which Potency value is on record for "O=C(c1ccc(O)c(O)c1)c1ccc(O)cc1O" ?
Out: 3.55 µM (active)

In: Which Potency value is on record for "CCOc1ccc2ccccc2c1C(=O)N[C@@H]1C(=O)N2[C@@H]1SC(C)(C)[C@@H]2C(=O)O" ?
Out: inactive

* * *

- assay.protocol: qHTS assay to identify small molecule antagonists of the estrogen related receptor (ERR) signaling pathway from Tox21 library (AID 1224848); note: nearly all actives have a fitted effect of over 50% in size
- condition.set: ERR reporter cell line, luciferase antagonist mode, 18 h; series mostly up to 92.4 µM
- Source text: U.S. Tox21 Program National Center for Advancing Translational Sciences [NCATS] NIH Chemical Genomics Center [NCGC] U.S. Environmental Protection Agency [EPA] National Institutes of Environmental Health Sciences [NIEHS] National Toxicology Program [NTP] U.S. Food and Drug Administration [FDA] Tox21 Assay Overview: Estrogen related receptors (ERRs), the first orphan nuclear receptors discovered, play an important role in the control of cellular energy metabolism. […]
Results filed as inconclusive are left out. Activity calls are given as the source filed them. Calls follow the shape of the dose curve; as a rule, active = well fitted inhibition curve with a large enough effect in the repeat runs; inconclusive = weak or mixed curves; inactive = no such curve, though single readings can be large or run the other way.
Give one outcome, nothing more. List: true for active, false for inactive

In: Test call, this compound: "C=C(CC)C(=O)c1ccc(OCC(=O)O)c(Cl)c1Cl"
Out: true

In: Test call, this compound: "O=C(O)c1cc(O)c2ccccc2c1O"
Out: true

In: Test call, this compound: "O=C1CCc2ccc(OCCCCN3CCN(c4cccc(Cl)c4Cl)CC3)cc2N1"
Out: true

In: Test call, this compound: "Cc1nc(-c2ccc(Cl)cc2)oc1COC(C)(C)C(=O)O"
Out: false

In: Test call, this compound: "CC1(C)CCC[C@]2(C)[C@H]3CCO[C@]3(C)CC[C@@H]12"
Out: false

* * *

- assay.protocol: qHTS assay to identify small molecule agonists of the RXR signaling pathway - cell viability counter screen (AID 1159529); note: nearly all actives have a fitted effect of over 50% in size
- condition.set: RXR-alpha-bla HEK293T viability, CellTiter-Glo, 16 h; series mostly up to 76.8 µM
Results filed as inconclusive are left out. Activity calls are given as the source filed them. The call rests on the fitted dose curve; in most records, active means well fitted cell-killing curve with a large enough effect in the repeat runs; inconclusive means weak or mixed curves, or effect the other way; inactive means no such curve, though single readings can be large or run the other way.
Give one outcome, nothing more. List: 1 (active), 0 (inactive)

Sample answers from the record:
- compound: "CC(C)(C)c1ccc(C(O)CCCN2CCC(C(O)(c3ccccc3)c3ccccc3)CC2)cc1 (centres undefined)"
  label: 1
- compound: "COC1=C(OC)C(=O)C(CCCCCCCCCCO)=C(C)C1=O"
  label: 0
- compound: "CCCCCCOC(=O)C(C)CC (centres undefined)"
  label: 0
- compound: "CCOC(=O)c1ccc(C2CCC(NC[C@H](O)COc3ccc(O)c(NS(C)(=O)=O)c3)CC2)cc1 (some centres undefined)"
  label: 1
- compound: "CN1CCN2c3ccccc3Cc3ccccc3C2C1 (centres undefined)"
  label: 0
- compound: "CCCNCCC"
  label: 0
- compound: "CC(C)(C)C1CCC(=O)CC1"
  label: 0
- compound: "CCCCCCCCCCOC(=O)c1ccccc1C(=O)OCCCCCCCC"
  label: 0
- compound: "O=C(O)CCN(C1(C(=O)NO)CCCC1)S(=O)(=O)c1ccc(Oc2ccc(F)cc2)cc1"
  label: 0
- compound: "CN(C)CCN1CCN(c2cccc(Cl)c2)C1=O"
  label: 0

In: Test call, this compound: "Cc1nc(-c2ccc(Cl)cc2)oc1COC(C)(C)C(=O)O"
Out: 0

In: Test call, this compound: "CCCCCc1ccc(Cl)cc1"
Out: 0

In: Test call, this compound: "O=C(O)c1cc(=O)c2ccccc2o1"
Out: 0

In: Test call, this compound: "OC[C@@H](O)[C@@H](O)CO"
Out: 0

* * *

- assay.protocol: A CellTox Green Cytotoxicity Assay to monitor cytotoxicity in HEK293 cells - 32 hour (AID 1224881); note: nearly all actives have a fitted effect of over 40% in size
- condition.set: CellTox Green fluorescence; series mostly up to 76.8 µM
Inconclusive results are not listed. Calls of active or inactive are those of the source. Calls come from the whole dose curve; as a rule, active = well fitted activation curve with a large enough effect in the repeat runs; inconclusive = weak or mixed curves; inactive = flat fitted curve, though single readings scatter.
Give one outcome, nothing more. List: active, inactive

In: Test call, this compound: "CC(C)OC(=O)C(O)(CC(=O)O)CC(=O)O"
Out: inactive
